# System: HT-29 (colon adenocarcinoma)
# ASSAY SUMMARY: Cell growth inhibition, MTT assay, HT-29, without or with verapamil
# Type: cell-based, human
# DETAILS: mean ± SD, Table S1, in the presence of verapamil (10 µM)
# Description: The ability of the synthesized compounds to inhibit the cell proliferation of human cancer cell lines was assayed by measuring cell viability through the use of the MTT method 72 h after treatment. […] Then, every compound was added (10 µL/well) to a final concentration of 10 µM. […] The antiproliferative activity of compounds was measured 72 h after drug exposure through the MTT assay. […] The IC50 values were determined using Origin software (version 9.6, OriginLab, Washington, DC, USA).
METRIC: pIC50
// pIC50 is dimensionless: -log10 of concentration (M)

{"columns": ["COMPOUND", "EXPERIMENTAL SYSTEM", "pIC50"],
 "data": [
  ["Cn1cc(C#N)c2cc(-n3nnnc3-c3cc(Cl)nc(Cl)c3)ccc21 [Compound 20]", "HT-29 (colon adenocarcinoma)", 6.17]
]}

// next item, pIC50 requested
stdin: Would you kindly share the measured pIC50 for COc1cc(-c2nnnn2-c2ccc3c(c2)c(C=O)cn3C)cc(Cl)n1 [Compound 13] ?
stdout: 7.17

---

# EXPERIMENTAL SYSTEM: microtubular protein isolated from calf brains (bovine brain tubulin) (Bos taurus, UniProt P81947+Q6B856)
# Sequence (Q6B856 whole entry): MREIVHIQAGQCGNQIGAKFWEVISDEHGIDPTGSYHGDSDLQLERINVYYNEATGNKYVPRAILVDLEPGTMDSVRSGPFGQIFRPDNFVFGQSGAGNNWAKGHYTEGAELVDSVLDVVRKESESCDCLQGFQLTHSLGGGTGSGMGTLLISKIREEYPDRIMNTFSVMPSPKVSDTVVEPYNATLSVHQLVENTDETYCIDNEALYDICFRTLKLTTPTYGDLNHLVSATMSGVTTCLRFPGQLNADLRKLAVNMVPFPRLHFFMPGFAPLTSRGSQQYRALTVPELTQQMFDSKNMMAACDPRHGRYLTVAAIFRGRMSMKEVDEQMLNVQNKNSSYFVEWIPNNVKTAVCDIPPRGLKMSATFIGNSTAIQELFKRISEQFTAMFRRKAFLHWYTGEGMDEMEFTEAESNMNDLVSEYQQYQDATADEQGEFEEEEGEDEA
# Sequence (P81947 whole entry): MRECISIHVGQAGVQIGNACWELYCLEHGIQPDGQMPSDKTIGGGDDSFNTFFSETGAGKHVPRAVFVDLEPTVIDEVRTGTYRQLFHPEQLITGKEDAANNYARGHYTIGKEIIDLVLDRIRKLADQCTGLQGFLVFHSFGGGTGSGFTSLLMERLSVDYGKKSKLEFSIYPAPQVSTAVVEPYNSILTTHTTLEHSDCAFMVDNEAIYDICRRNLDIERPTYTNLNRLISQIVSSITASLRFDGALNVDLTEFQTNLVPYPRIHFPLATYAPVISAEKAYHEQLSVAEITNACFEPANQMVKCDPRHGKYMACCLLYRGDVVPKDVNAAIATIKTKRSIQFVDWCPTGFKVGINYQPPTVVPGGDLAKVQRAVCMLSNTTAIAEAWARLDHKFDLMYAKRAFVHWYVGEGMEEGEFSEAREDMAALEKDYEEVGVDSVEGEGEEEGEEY
# ASSAY SUMMARY: Tubulin polymerization inhibition (TPI)
# DETAILS: in vitro tubulin polymerization, mean ± SD
Please note: IC50 exactly at 5 µM is class 0. Only values below 5 µM get class 1.

Record excerpt, results attached:
{"columns": ["SMILES INPUT", "CATEGORY LABEL"],
 "data": [
  ["CSc1cc(-c2nnnn2-c2ccc3c(c2)c(C#N)cn3C)cc(SC)n1", "class 0"],
  ["Cn1cc(C=O)c2cc(-n3nnnc3-c3cc(Cl)nc(Cl)c3)ccc21", "class 1"],
  ["COc1cc(-c2nnnn2-c2ccc3c(c2)c(C#N)cn3C)cc(Cl)n1", "class 0"],
  ["CSc1cc(-c2nnnn2-c2ccc3c(ccn3C)c2)cc(Cl)n1", "class 1"]
]}

stdin: Item COc1cc(-c2nnnn2-c2ccc3c(ccn3C)c2)cc(Cl)n1 : IC50 beneath 5 µM, strictly?
stdout: class 1

stdin: I'd appreciate it if you could check whether Cn1cc(C=NO)c2cc(-n3nnnc3-c3cc(Cl)nc(Cl)c3)ccc21 has IC50 smaller than 5 µM.
stdout: class 1

stdin: Determine whether this compound shows IC50 lower than 5 µM (ties excluded): Cn1cc(C#N)c2cc(-n3nnnc3-c3cc(Cl)nc(Cl)c3)ccc21
stdout: class 0

stdin: Strictly below 5 µM in IC50? Cn1ccc2cc(-n3nnnc3-c3cc(Cl)nc(Cl)c3)ccc21
stdout: class 1

stdin: # strict comparison: is reported IC50 < 5 µM? input = CSc1cc(-c2nnnn2-c2ccc3c(c2)c(C=O)cn3C)cc(Cl)n1
stdout: class 1

stdin: Decide: IC50 of CSc1cc(-c2nnnn2-c2ccc3c(c2)c(C#N)cn3C)cc(Cl)n1 strictly below 5 µM?
stdout: class 1

stdin: Is IC50 of CSc1cc(-c2nnnn2-c2ccc3c(c2)c(C=NO)cn3C)cc(Cl)n1 strictly below 5 µM?
stdout: class 1

---

# ASSAY SUMMARY: Aqueous solubility, shake-flask method, phosphate buffer pH 7.4
# Type: physicochemical
# DETAILS: thermodynamic from solid, phosphate buffer pH 7.4, shake-flask, mean ± SD of three experiments
# Description: The aqueous solubility of tetrazole derivatives was determined by the shaking flask methodology in phosphate buffer at pH 7.4, microfiltration, and quantification of the saturated solutions via UV spectroscopy. […] The aqueous solubility of the compounds was determined using the saturation shake-flask method. First, calibration lines at the maximum wavelength of absorbance were determined for each compound. […]
METRIC: solubility at 72 h (µg/mL)
Answer with a number only, understood to be in µg/mL.

Reference set (5 entries):
{"columns": ["MOLECULE", "solubility at 72 h [µg/mL]"],
 "data": [
  ["Cn1cc(C=NO)c2cc(-n3nnnc3-c3cc(Cl)nc(Cl)c3)ccc21", 38.2],
  ["CSc1cc(-c2nnnn2-c2ccc3c(ccn3C)c2)cc(Cl)n1", 26.1],
  ["COc1cc(-c2nnnn2-c2ccc3c(ccn3C)c2)cc(Cl)n1", 35.4],
  ["COc1cc(-c2nnnn2-c2ccc3c(c2)c(C#N)cn3C)cc(Cl)n1", 39.7],
  ["CSc1cc(-c2nnnn2-c2ccc3c(c2)c(C#N)cn3C)cc(Cl)n1", 31.2]
]}

stdin: Could you share which solubility at 72 h value was measured for CSc1cc(-c2nnnn2-c2ccc3c(c2)c(C=O)cn3C)cc(Cl)n1 ?
stdout: 36.9

stdin: Request the reported solubility at 72 h associated with CSc1cc(-c2nnnn2-c2ccc3c(c2)c(C#N)cn3C)cc(SC)n1
stdout: 34.1

stdin: # solubility at 72 h lookup, item CSc1cc(-c2nnnn2-c2ccc3c(c2)c(C=NO)cn3C)cc(Cl)n1
stdout: 42.7

stdin: Find the recorded solubility at 72 h belonging to COc1ccc(S(=O)(=O)Nc2cccnc2Nc2ccc(O)cc2)cc1 [ABT-751, reference compound] and report it.
stdout: 40

---

# EXPERIMENTAL SYSTEM: microtubular protein isolated from calf brains (bovine brain tubulin) (Bos taurus, UniProt P81947+Q6B856)
# ASSAY SUMMARY: Tubulin polymerization inhibition (TPI)
# DETAILS: in vitro tubulin polymerization, mean ± SD
Documented IC50 across a set of molecules
Give just the numeric value; µM need not be written.

{"columns": ["SMILES INPUT", "UNIT LABEL", "IC50"],
 "data": [
  ["CSc1cc(-c2nnnn2-c2ccc3c(c2)c(C=O)cn3C)cc(SC)n1", "µM", 3.5],
  ["COc1cc(-c2nnnn2-c2ccc3c(c2)c(C=NO)cn3C)cc(Cl)n1", "µM", 3.8],
  ["CSc1cc(-c2nnnn2-c2ccc3c(c2)c(C=NO)cn3C)cc(SC)n1", "µM", 4.3],
  ["CSc1cc(-c2nnnn2-c2ccc3c(ccn3C)c2)cc(SC)n1", "µM", 3.8]
]}

We next turn to a different molecule, shown below.
stdin: Query: IC50; subject: COc1cc(-c2nnnn2-c2ccc3c(c2)c(C=O)cn3C)cc(Cl)n1
stdout: 2.8

---

# System: T98G (temozolomide resistant glioblastoma)
# ASSAY SUMMARY: Cell growth inhibition, MTT assay, T98G
# Assay type: cell-based
# DETAILS: Homo sapiens, mean ± SD, Table S1
METRIC: IC50 (µM)
Report as a plain number; the unit µM is understood.

# count of solved cases: 5
{"columns": ["MOLECULE", "EXPERIMENTAL SYSTEM", "UNIT LABEL", "IC50"],
 "data": [
  ["CSc1cc(-c2nnnn2-c2ccc3c(c2)c(C#N)cn3C)cc(SC)n1", "T98G (temozolomide resistant glioblastoma)", "µM", 0.865],
  ["Cn1cc(C=NO)c2cc(-n3nnnc3-c3cc(Cl)nc(Cl)c3)ccc21", "T98G (temozolomide resistant glioblastoma)", "µM", 0.127],
  ["Cn1cc(C#N)c2cc(-n3nnnc3-c3cc(Cl)nc(Cl)c3)ccc21", "T98G (temozolomide resistant glioblastoma)", "µM", 0.555],
  ["CSc1cc(-c2nnnn2-c2ccc3c(ccn3C)c2)cc(SC)n1", "T98G (temozolomide resistant glioblastoma)", "µM", 0.219],
  ["COc1cc(-c2nnnn2-c2ccc3c(c2)c(C=O)cn3C)cc(Cl)n1", "T98G (temozolomide resistant glioblastoma)", "µM", 0.0541]
]}

stdin: Record request: IC50 value, item CSc1cc(-c2nnnn2-c2ccc3c(c2)c(C=NO)cn3C)cc(Cl)n1
stdout: 0.102

---

# System: HT-29 (colon adenocarcinoma)
# ASSAY SUMMARY: Cell growth inhibition, MTT assay, HT-29, without or with verapamil
# Format: cell-based, human
# DETAILS: mean ± SD, Table S1, in the presence of verapamil (10 µM)
# Protocol: The ability of the synthesized compounds to inhibit the cell proliferation of human cancer cell lines was assayed by measuring cell viability through the use of the MTT method 72 h after treatment. […] Then, every compound was added (10 µL/well) to a final concentration of 10 µM. […] The antiproliferative activity of compounds was measured 72 h after drug exposure through the MTT assay. […] The IC50 values were determined using Origin software (version 9.6, OriginLab, Washington, DC, USA).
METRIC: IC50
Write the quantity with the unit trailing the number.

Look over these answered cases.
{"columns": ["SMILES INPUT", "IC50"],
 "data": [
  ["COc1cc(-c2nnnn2-c2ccc3c(c2)c(C#N)cn3C)cc(Cl)n1", "756 nM"],
  ["COc1cc(-c2nnnn2-c2ccc3c(ccn3C)c2)cc(Cl)n1", "80.2 nM"]
]}

stdin: Report IC50 for CSc1cc(-c2nnnn2-c2ccc3c(c2)c(C=O)cn3C)cc(SC)n1 please.
stdout: 242 nM
